Recorded values, source PubChem BioAssay (NCI).

Measured growth, listed per entry for reference.
- Tested on: A498 renal
- Procedure summary: NCI-60 one-dose screen, 48 h (100 = growth as untreated, 0 = no growth, -100 = all killed)
- Condition summary: 10 µM unless noted
About 83,000 compounds went through this panel and 20% of them were active in at least one assay; those are over-represented in the sample as a whole.
Your answer is read as %, so omit the unit and give the number.

Look over these answered cases.
| Compound | Target system | Value measured |
| --- | --- | --- |
| COC(=O)c1cc(Nc2ccc(O)c3c2C(=O)c2c([N+](=O)[O-])ccc(O)c2C3=O)cc(C(=O)OC)c1 | A498 renal | 93.8 |
| CC(=O)/C(=C/c1ccc(-c2ccccc2)cc1)C(=O)c1ccccc1 | A498 renal | 96.5 |
| NC(=O)CC(NC(=O)COc1ccc(Cl)cc1Cl)C(=O)O (stereo unspecified) | A498 renal | 88 |

growth measured on "Nc1nc2cc(O)ccc2n2cc3c(F)cccc3c12" = 41.5

growth measured on CC(Br)c1nc2ccccc2cc1C(N)=O (stereo unspecified) = 94.7

growth measured on "CC(C)(C)OC(=O)N1C/C(=C\c2ccccc2)C(=O)/C(=C/c2ccccc2)C1" = 101

growth measured on "CCCCn1c(Cc2ccc(OC)cc2)nc2cc(OC)c(OC)cc2c1=O" = 62

growth measured on "O=C1c2cc([N+](=O)[O-])ccc2-c2cc(Cl)c(NC(=O)C(F)(F)F)cc21" = 101

growth measured on "CCN(CC)c1ccc2nc3ccc(N=Nc4ccc(O)cc4)cc3[n+](-c3ccccc3)c2c1" = 75

growth measured on "CCCCCCCCCCCCCCCCCC1=NCCN1CCNC(C)=O" = 78.4

growth measured on "CCOC(=O)c1cc(-c2ccc(OC)cc2)[nH]c1NNC(=O)CCOC" = 77.8

---

Measured growth, listed per entry for reference.
- Test system: TK-10 renal
- Procedure summary: NCI-60 one-dose screen, 48 h (100 = growth as untreated, 0 = no growth, -100 = all killed)
- Condition summary: 10 µM unless noted
The panel holds about 83,000 compounds, 20% with a hit somewhere; the sample as a whole holds those more often. Activity calls are given as the source filed them. Rule for the calls: active = growth percent below 10; inactive = the rest.

Look over these answered cases.
| Compound | growth |
| --- | --- |
| C#CCCCCCCC[C@@H]1OC(=O)[C@H]([C@@H](C)CC)NC(=O)[C@@H]([C@@H](C)CC)NC(=O)CC(=O)[C@@H]1C | 141% (inactive) |
| CCn1cc(C(=O)O)c(=O)c2cc(F)c(N3CCN(S(=O)(=O)c4ccc(Cl)cc4)CC3)cc21 | 53.6% (inactive) |
| Clc1ccc(N/N=C(/c2ccccc2)c2ccccn2)nc1 | 37.3% (inactive) |

growth measured on "CCCCCCCCCCCCOC(=O)/C=C\C(=O)NC(N)=O" = 86.9% (inactive)

growth measured on "CCCCCCCCCC[N+](C)(C)N" = 74.4% (inactive)

growth measured on "Cc1sc(NC(=O)c2ccc(C(C)(C)C)cc2)c(C(=O)O)c1C" = 68.4% (inactive)

growth measured on NNC(=S)N1N=C(c2cc3ccccc3o2)CC1c1c[nH]c2ccccc12 (stereo unspecified) = 80.1% (inactive)

growth measured on "CNc1ccc(Nc2ccc(S(=O)(=O)O)cc2)c2c1C(=O)c1ccccc1C2=O" = 126% (inactive)

growth measured on "O=c1oc2ccc3ccccc3c2cc1-c1ccnc2[nH]c(=S)[nH]c(=O)c12" = 143% (inactive)

growth measured on CC(O)CN(CC(C)O)N(CC(C)O)CC(C)O (stereo unspecified) = 99.3% (inactive)

growth measured on COc1cc2c(c(OC)c1OC)C(=O)CC(c1cccc(C(=O)Nc3cccc(Br)c3)c1)O2 (stereo unspecified) = 109% (inactive)

growth measured on CC([C@H]1CC=C2C3CCC4=C[C@@H](N(C)C)CC[C@]4(C)C3CC[C@@]21C)N(C)C (stereo partly specified) = 95.5% (inactive)

growth measured on "[N-]=[N+]=Nc1ncc(-c2ccc(C(F)(F)F)cc2)c(NC2CCCCCC2)n1" = 45.3% [100 µM] (inactive)

growth measured on CC(Br)c1nc2ccccc2cc1C(N)=O (stereo unspecified) = 96.8% (inactive)

growth measured on "Cc1c(C(N)=O)sc2c1c(=O)n(Cc1ccccc1)c1nnc(S(C)(=O)=O)n21" = 93.1% (inactive)

growth measured on "O=C1c2ccccc2CCc2ccccc21" = 99.3% (inactive)

growth measured on "Cc1ccc(C(=O)Nc2ccc(CN3CCN(C)CC3)c(C(F)(F)F)c2)cc1C#Cc1cnc(N)c2ccc(C#N)cc12" = 52.7% (inactive)

growth measured on CC(=O)CCS(=O)c1ccccc1 (stereo unspecified) = 89% (inactive)

growth measured on "Cc1nnc(-c2cc3c(ccc4ccccc43)oc2=O)c2cn(-c3ccc(Cl)cc3)nc12" = 151% (inactive)

growth measured on "COc1nc(OC)nc(-c2cc(C(=O)c3ccc(Br)cc3)n3cc(C)cc(C)c23)n1" = 82.1% (inactive)

growth measured on "O=c1[nH]c(=S)[nH]c(O)c1/C=C1\C=Nc2ccccc21" = 86.9% (inactive)

---

- Tested on: PC-3 prostate
- Procedure summary: NCI-60 one-dose screen, 48 h (100 = growth as untreated, 0 = no growth, -100 = all killed)
- Condition summary: 10 µM unless noted
This is part of a sample that, as a whole, favours compounds with a hit. Of some 83,000 tested, about 20% had one in any assay. Active and inactive are the calls of the source. Rule for the calls: active = growth percent below 10; inactive = the rest.
Measured growth, listed per entry for reference.

| Compound | Target system | Outcome measure | Value measured |
| --- | --- | --- | --- |
| O=C(Nn1cnc2ccccc21)N1CCCC1 | PC-3 prostate | growth | 106% (inactive) |
| CCCCCCCCCC(C)NC(=O)CCl (configuration not stated) | PC-3 prostate | growth | 94.5% (inactive) |
| COc1ccc(NC(=O)/C=C(C)/C=C/C=C(C)/C=C/C2=C(C)CCCC2(C)C)cc1 | PC-3 prostate | growth | 63.1% (inactive) |
| Cc1cc2c(-c3nc4ccccc4n3C)c(O)c(O)cc2c(O)c1-c1c(C)cc2c(-c3nc4ccccc4n3C)c(O)c(O)cc2c1O | PC-3 prostate | growth | 27.3% (inactive) |
| CCCCCCCCCC[N+](C)(C)N | PC-3 prostate | growth | 62.4% (inactive) |

# ---- query compound ----
growth measured on "COc1cccc(NC(=O)NCCNc2nccc(-c3c(-c4ccc(F)cc4)nc4sccn34)n2)c1" = 89.9% (inactive)

---

- Tested on: SF-295 CNS
- Procedure summary: NCI-60 one-dose screen, 48 h (100 = growth as untreated, 0 = no growth, -100 = all killed)
- Condition summary: 10 µM unless noted
Compounds without any hit were thinned out: in the full panel of roughly 83,000, 20% have a hit.
Measured growth, listed per entry for reference.
Your answer is read as %, so omit the unit and give the number.

| Molecule | Value measured |
| --- | --- |
| CC1=NN(c2cccc(Cl)c2)C(=O)/C1=C\c1cn(-c2nc(N3CCOCC3)nc(N3CCOCC3)n2)c2ccccc12 | 105 |
| CCCCCCCCC1OC1CCCCCCCC(=O)O (configuration not stated) | 97.4 |
| CCCC(=O)NNc1[nH]c(-c2cc(OC)c(OC)c(OC)c2)cc1C(=O)OCC | 95.3 |
| Clc1ccc(N/N=C(/c2ccccc2)c2ccccn2)nc1 | 41.2 |
| CC(C)OCC1CO1 (configuration not stated) | 78.2 |
| O=C1C(=O)c2ccccc2C(O)=C1CCCc1ccc(Oc2ccccc2)cc1 | 92.9 |
| Cc1ccc2c(O)c(O)cc(NC(C)CCCN)c2n1 (configuration not stated) | 90.6 |
| CCCCCN1CCN(C(CC(=O)c2ccccc2)C(=O)c2ccccc2)CC1 (configuration not stated) | 105 |

# ---- query molecule ----
growth measured on "CCN(CC)CCOC(=O)c1cccnc1" = 101

---

Measured growth, listed per entry for reference.
- Tested on: SW-620 colon
- Procedure summary: NCI-60 one-dose screen, 48 h (100 = growth as untreated, 0 = no growth, -100 = all killed)
- Condition summary: 10 µM unless noted
This is part of a sample that, as a whole, favours compounds with a hit. Of some 83,000 tested, about 20% had one in any assay.
Your answer is read as %, so omit the unit and give the number.

| Compound | Target system | growth (%) |
| --- | --- | --- |
| C=C[C@]1(C)C=C2C(=O)[C@@]3(O)OC[C@@]4(CCCC(C)(C)C43O)C2(O)C(O)C1 (some centres undefined) | SW-620 colon | -57.7 |
| O=C(/C=C/c1ccc(Br)cc1)c1ccccc1 | SW-620 colon | 65.6 |
| CC(=O)OCC1O[C@@H](OC(C)=O)[C@@H](NC(=O)NS(=O)(=O)c2ccccc2)C(OC(C)=O)[C@@H]1OC(C)=O (some centres undefined) | SW-620 colon | 111 |

growth measured on "COc1cc([C@@H]2c3cc4c(cc3[C@H](O)[C@H]3COC[C@@H]23)OCO4)cc(OC)c1OC" = 54.4

growth measured on "O=C(c1ccccc1)c1ccccc1-c1ccccc1" = 15.8

growth measured on "O=c1c(N=Nc2nccs2)c(-c2ccccc2)[nH]n1-c1nc(-c2ccccc2)cs1" = 40.2

growth measured on "COC(=O)c1cc(=O)nc(N/N=C/c2ccccc2O)s1" = 106

growth measured on "O=Nc1ccc(O)c2ccccc12" = 12.1

growth measured on "CC(=O)OCC(=O)[C@@]1(O)[C@H](C)C[C@H]2[C@@H]3C=C(C)C4=Cc5c(cnn5-c5ccc(F)cc5)C[C@]4(C)[C@H]3[C@@H](O)C[C@@]21C" = -70.3
